Target: ERα (Homo sapiens, UniProt P03372)
Sequence (P03372 1-595): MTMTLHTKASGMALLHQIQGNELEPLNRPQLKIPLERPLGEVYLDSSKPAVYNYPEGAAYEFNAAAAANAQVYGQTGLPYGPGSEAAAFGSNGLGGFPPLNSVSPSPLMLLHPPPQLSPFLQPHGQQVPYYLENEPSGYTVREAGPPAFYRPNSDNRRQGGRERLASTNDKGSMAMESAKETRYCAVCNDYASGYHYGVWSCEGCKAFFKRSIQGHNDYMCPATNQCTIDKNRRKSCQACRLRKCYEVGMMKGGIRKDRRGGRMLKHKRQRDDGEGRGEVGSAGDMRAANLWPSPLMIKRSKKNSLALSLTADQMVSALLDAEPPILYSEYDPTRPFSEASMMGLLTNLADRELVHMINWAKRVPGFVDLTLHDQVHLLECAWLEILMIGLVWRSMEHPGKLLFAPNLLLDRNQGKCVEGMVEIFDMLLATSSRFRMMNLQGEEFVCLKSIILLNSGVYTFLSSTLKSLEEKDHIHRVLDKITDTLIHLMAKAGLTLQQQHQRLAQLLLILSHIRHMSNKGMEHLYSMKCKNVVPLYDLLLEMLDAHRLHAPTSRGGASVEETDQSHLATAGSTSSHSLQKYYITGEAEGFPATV
Experiment: Degradation of ERα in MCF-7 cells (immunoblotting, 4 h)
Assay type: cell-based
Settings: 10nM compound
Quantity Measured: Degradation rate (%) of ERα in MCF-7 cells

Compound | Obs Value
O=C1CCC(N2Cc3c(ccc4c3OCC43CCN(CC4CCC(N5CCN(c6ccc([C@@H]7c8ccc(O)cc8CC[C@@H]7c7ccccc7)cc6)CC5)CC4)CC3)C2=O)C(=O)N1 (stereo partly drawn) | 51

I. O=C1CCC(N2Cc3c(ccc4c3OCC43CCN(C(=O)C4CCC(CN5CCC(C#Cc6ccc(C7c8ccc(O)cc8CCC7c7ccccc7)cc6)CC5)CC4)CC3)C2=O)C(=O)N1 (stereo not drawn)
II. O=C1CCC(N2Cc3c(ccc4c3OCC43CCN(C4CCN(C5CC6(CCN(c7ccc([C@@H]8c9ccc(O)cc9CC[C@@H]8c8ccccc8)cc7)CC6)C5)[C@H](C(=O)NC5CC5)C4)CC3)C2=O)C(=O)N1 (stereo partly drawn)
Task item: Response body: label of entry with the larger Degradation rate (%) of ERα in MCF-7 cells; valid values I , II . Your answer should be the label attached to the chosen record.
Reply: II
(II: 80%, I: 42%)

====

Target: ERα (Homo sapiens)
Assay: Degradation of ERα in MCF-7 cells (immunoblotting, 4 h)
Type: cell-based
Conditions: 10nM compound
Quantity Measured: Degradation rate (%) of ERα in MCF-7 cells

Example entries and their recorded answers appear below.
Compound | Obs Value
C[C@@H]1Cc2c(ccc3[nH]ncc23)C(c2ccc(N3CCC4(CCC(N5CCC6(CC5)COc5c6ccc6c5CN(C5CCC(=O)NC5=O)C6=O)CC4)CC3)cn2)N1CC(F)(F)F (some centres unmarked) | 64
COC(=O)[C@H]1CC(N2CCC3(CC2)COc2c3ccc3c2CN(C2CCC(=O)NC2=O)C3=O)CCN1CC1CCN(c2ccc([C@@H]3c4ccc(O)cc4CC[C@@H]3c3ccccc3)cc2)CC1 (some centres unmarked) | 75

1. C[C@@H]1C[C@H](N2CCC3(CC2)COc2c3ccc3c2CN(C2CCC(=O)NC2=O)C3=O)CCN1C1CC2(CCN(c3ccc([C@@H]4c5ccc(O)cc5CC[C@@H]4c4ccccc4)cc3)CC2)C1 (some centres unmarked)
2. O=C1CCC(N2Cc3cc4c(cc3C2=O)OCC42CCN(CC3CCN(c4ccc([C@@H]5c6ccc(O)cc6CC[C@@H]5c5ccccc5)cc4)CC3)CC2)C(=O)N1 (some centres unmarked)
3. O=C1CCC(N2Cc3ccc4c(c3C2=O)OC2(CC4)CCN(C3CCC4(CC3)CCN(c3ccc([C@@H]5c6ccc(O)cc6CC[C@@H]5c5ccccc5)cc3)CC4)CC2)C(=O)N1 (some centres unmarked)
Task item: // ranking: key=Degradation rate (%) of ERα in MCF-7 cells, reverse=True # answer = labels listed in requested order
Reply: 1, 2, 3
(1: 62%, 2: -14%, 3: -29%)

====

Target: UniProt P03372
Assay: Degradation of ERα in MCF-7 cells (immunoblotting, 4 h)
Type: cell-based
Details: 10nM compound
Quantity Measured: Degradation rate (%) of ERα in MCF-7 cells

P. O=C1CCC(N2Cc3c(ccc4c3OCC43CCN(CCNC(=O)C4CCC5(CC4)CCN(c4ccc([C@@H]6c7ccc(O)cc7CC[C@@H]6c6ccccc6)cc4)CC5)CC3)C2=O)C(=O)N1 (stereo partly drawn)
Q. O=C1CCC(N2Cc3c(ccc4c3OC3(CC4)CCN(C4CC5(CCN(c6ccc([C@@H]7c8ccc(O)cc8CC[C@@H]7c7ccccc7)cc6)CC5)C4)CC3)C2=O)C(=O)N1 (stereo partly drawn)
Task item: Lab note: check whether P or Q has the lower measured Degradation rate (%) of ERα in MCF-7 cells. Write down the label attached to your selection.
Reply: Q
(Q: -17%, P: 72%)

====

Tested on: T-47D cells
Experiment: Inhibition of cell proliferation in T-47D cells (CCK-8, 6 days)
Format: cell-based
Details: 6 days of treatment, Table 3
Quantity Measured: IC50 (nM)

Molecule | Assay Target | Unit Descriptor | Obs Value
COC(=O)[C@@H]1C[C@H](N2CCC3(CC2)COc2c3ccc3c2CN(C2CCC(=O)NC2=O)C3=O)CCN1C1CCN(c2ccc([C@@H]3c4ccc(O)cc4CC[C@@H]3c3ccccc3)cc2)CC1 (some centres unmarked) [H32] | T-47D cells | nM | 1.44
O=C1CCC(N2Cc3c(ccc4c3OCC43CCN(C(=O)C4CCC(CN5CCC(C#Cc6ccc(C7c8ccc(O)cc8CCC7c7ccccc7)cc6)CC5)CC4)CC3)C2=O)C(=O)N1 (centres unmarked) [C6] | T-47D cells | nM | 2.93
O=C1CCC(N2Cc3ccc4c(c3C2=O)OC2(CC4)CCN(CC3CCN(c4ccc([C@@H]5c6ccc(O)cc6CC[C@@H]5c5ccccc5)cc4)CC3)CC2)C(=O)N1 (some centres unmarked) [H7] | T-47D cells | nM | 10.4

1. C[C@@H]1Cc2c(ccc3[nH]ncc23)C(c2ccc(N3CCC(C(=O)N4CCC(N5CCC6(CC5)COc5c6ccc6c5CN(C5CCC(=O)NC5=O)C6=O)CC4)CC3)cn2)N1CC(F)(F)F (some centres unmarked) [B42]
2. CN(CC(=O)N1CCC2(CC1)COc1c2ccc2c1C(=O)N(C1CCC(=O)NC1=O)C2=O)C1CCC2(CC1)CN(c1ccc([C@@H]3c4ccc(O)cc4CC[C@@H]3c3ccccc3)cc1)C2 (some centres unmarked) [C19]
Task item: // compare: 1 vs 2 , metric IC50, want the smaller State the label of the item chosen.
Reply: 2
(2: 14.7 nM, 1: 2460 nM)

====

Test system: T-47D cells
Test: Inhibition of cell proliferation in T-47D cells (CCK-8, 6 days)
Assay type: cell-based
Settings: 6 days of treatment, Table 3
pIC50: −log10 of the molar value.
Quantity Measured: pIC50

Compound | Obs Value
O=C1CCC(N2Cc3c(ccc4c3OCC43CCN([C@H]4CCN(C5CC6(CCN(c7ccc([C@@H]8c9ccc(O)cc9CC[C@@H]8c8ccccc8)cc7)CC6)C5)C[C@H]4F)CC3)C2=O)C(=O)N1 (some centres unmarked) | 8.97

A. CN(CC1CCN(c2ccc([C@@H]3c4ccc(O)cc4CC[C@@H]3c3ccccc3)cc2)CC1)[C@H]1CC[C@H](C(=O)N2CCC3(CC2)COc2c3ccc3c2CN(C2CCC(=O)NC2=O)C3=O)CC1 (some centres unmarked)
B. O=C1CCC(N2Cc3c(ccc4c3OCC43CCN(CC(=O)N4CCN(c5ccc([C@@H]6c7ccc(O)cc7CC[C@@H]6c6ccccc6)cc5)CC4)CC3)C2=O)C(=O)N1 (some centres unmarked)
Task item: Form: Entry with minimum pIC50 (choose one): A / B Identify your selection by its label.
Reply: A
(A: 8.31, B: 8.81)

a. O=C1CCC(N2Cc3c(ccc4c3OCC43CCN(C4CC5(C4)CC4(CCN(c6ccc([C@@H]7c8ccc(O)cc8CC[C@@H]7c7ccccc7)cc6)CC4)C5)CC3)C2=O)C(=O)N1 (some centres unmarked)
b. C[C@@H]1Cc2c(ccc3[nH]ncc23)[C@@H](c2c(F)cc(N3CCC4(CCN(CC(=O)N5CCC6(CC5)COc5c6ccc6c5CN(C5CCC(=O)NC5=O)C6=O)C4)CC3)cc2F)N1CC(F)F (some centres unmarked)
Task item: I'd appreciate it if you could identify which of a and b has the greater pIC50. State the label of the item chosen.
Reply: b
(b: 9.18, a: 8.38)

====

Biological target: ERα (Homo sapiens, UniProt P03372)
Test: Degradation of ERα in T-47D cells (immunoblotting, 4 h)
Format: cell-based
Set-up: host or cells: T-47D
Details: 1nM compound
Quantity Measured: Degradation rate (%) of ERα in T-47D cells

Molecule | Unit Descriptor | Obs Value
O=C1CCC(N2C(=O)c3cc4c(cc3C2=O)OC2(CC4)CCN(CC3CCC4(CC3)CCN(c3ccc([C@@H]5c6ccc(O)cc6CC[C@@H]5c5ccccc5)cc3)CC4)CC2)C(=O)N1 (some centres unmarked) | % | 7
O=C1CCC(N2C(=O)c3ccc4c(c3C2=O)OC2(CC4)CCN(C3CCC4(CC3)CN(c3ccc([C@@H]5c6ccc(O)cc6CC[C@@H]5c5ccccc5)cc3)C4)CC2)C(=O)N1 (some centres unmarked) | % | 32
C[C@@H]1Cc2c(ccc3[nH]ncc23)[C@@H](c2c(F)cc(N3CCC4(CCN(CC(=O)N5CCC6(CC5)COc5c6ccc6c5CN(C5CCC(=O)NC5=O)C6=O)C4)CC3)cc2F)N1CC(F)F (some centres unmarked) | % | 56
C[C@@H]1Cc2c(ccc3[nH]ncc23)[C@@H](c2c(F)cc(N3CCC4(CCN(C(=O)CN5CCC6(CC5)COc5c6ccc6c5CN(C5CCC(=O)NC5=O)C6=O)C4)CC3)cc2F)N1CC(F)F (some centres unmarked) | % | 50
O=C1CCC(N2Cc3c(ccc4c3OCC43CCN(C4CCN(C5CCN(c6ccc(C7c8ccc(O)cc8CCC7c7ccccc7)cc6)CC5)CC4F)CC3)C2=O)C(=O)N1 (centres unmarked) | % | 43
O=C1CCC(N2Cc3cc4c(cc3C2=O)CCC2(CN(CC3CCN(C(=O)C5CCN(c6ccc([C@@H]7c8ccc(O)cc8CC[C@@H]7c7ccccc7)cc6)CC5)CC3)C2)O4)C(=O)N1 (some centres unmarked) | % | 40

a. O=C1CCC(N2Cc3c(ccc4c3OCC43CCN(C4CCN(S(=O)(=O)C5CCN(c6ccc([C@@H]7c8ccc(O)cc8CC[C@@H]7c7ccccc7)cc6)CC5)CC4)CC3)C2=O)C(=O)N1 (some centres unmarked)
b. O=C1CCC(N2Cc3c(ccc4c3OCC43CCN(C(=O)C4CCC(CN5CCC(C#Cc6ccc(C7c8ccc(O)cc8CCC7c7ccccc7)cc6)CC5)CC4)CC3)C2=O)C(=O)N1 (centres unmarked)
c. O=C1CCC(N2Cc3cc4c(cc3C2=O)CCC2(CN(C3CC5(CCN(c6ccc([C@@H]7c8ccc(O)cc8CC[C@@H]7c7ccccc7)cc6)CC5)C3)C2)O4)C(=O)N1 (some centres unmarked)
d. O=C1CCC(N2Cc3cc4c(cc3C2=O)OC2(CC4)CN(C3CCC(N4CCN(c5ccc([C@@H]6c7ccc(O)cc7CC[C@@H]6c6ccccc6)cc5)CC4)CC3)C2)C(=O)N1 (some centres unmarked)
e. O=C1CCC(N2C(=O)c3cc4c(cc3C2=O)OC2(CC4)CN(CC3CCC4(CC3)CN(c3ccc([C@@H]5c6ccc(O)cc6CC[C@@H]5c5ccccc5)cc3)C4)C2)C(=O)N1 (some centres unmarked)
Task item: Hello, I need these entries ordered by Degradation rate (%) of ERα in T-47D cells, highest reading first. Thanks! Rank the items, then write their labels in that order.
Reply: a, b, d, c, e
